# Test method notes: NCI Yeast Anticancer Drug Screen. Data for the mec2-1 strain (AID 157)
# Measurement parameters: S. cerevisiae mec2-1 strain, at 50.0 µM (retest, dose inferred, filed as 5.0), active compounds read high
About 79,000 compounds went through this panel and 15% of them were active in at least one assay; those are over-represented in the sample as a whole.
Measure: growth inhibition (%)
Report the figure in % without appending any unit label.

compound=O=C(c1ccc([N+](=O)[O-])cc1)c1[nH]c2ccccc2c(=O)c1-c1ccccc1 value_units=% quantitative_readout=99
compound=COC(=O)[C@@H](O)[C@]1(C(=O)OC)C2O[C@@H](OC)[C@@H]1CCCCCC[C@H]2O value_units=% quantitative_readout=11
compound="COc1ccc(Cc2c(-c3ccc(C)cc3)n[nH]c(=O)c2C2C(=O)N(c3ccccc3)N=C2c2ccccc2)cc1 (stereo not given)" value_units=% quantitative_readout=96
compound="Cc1cc(O)ccc1C1(c2ccc(F)cc2)OC(=O)c2ccccc21 (stereo not given)" value_units=% quantitative_readout=99
compound="CC1CN(CCCN2c3ccccc3Sc3ccc(Cl)cc32)C(C)(C)C1 (stereo not given)" value_units=% quantitative_readout=100

**Query** I would be grateful if you could share the reported growth inhibition for CCCN(CCC)C(=O)c1nc(N)nc(-c2ccc(OC)cc2)c1-c1ccc(OC)cc1 .
**Result** -1

**Query** Moving on to the next compound: Fc1ccc(NC(=S)SCc2ccc(Cl)c(Cl)c2)c(F)c1
**Result** 99

**Query** # iterate: FC(F)(F)c1ccccc1NC(=S)SCc1ccc2c(c1)OCO2
**Result** 98

**Query** Now the compound CC(=O)OC1CC2Cc3ccccc3C3(O)COC213 (stereo not given)
**Result** 75

**Query** Lookup CS(=O)(=O)OC1C(O)C(n2cnc3c(N)ncnc32)C(O)C(OS(C)(=O)=O)C1OS(C)(=O)=O (stereo not given)
**Result** -3
